Tested on: Plasmodium falciparum Sir2 (PF13_0152, Sir2A)
Test Protocol: pfSir2 binders on small-molecule microarrays, primary screen, biochemical, small-molecule microarray, 635 nm fluorescence (AID 1098);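 also: score merges spot fluorescence intensity with its signal-to-noise ratio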
Condition: small-molecule microarray binding, fluorescence 635 nm; higher = more signal
Quick reference: composite z-score of the listed items.
Form rule: numeric answer, no unit written next to it.

Below, 4 compounds whose answers are already recorded.
{"columns": ["Compound", "Readout Label", "Observed Result"],
 "data": [
  ["COCC(=C=CC[C@H](O)c1ccc(OCCO)cc1)C[C@H](O)c1cc(Cl)cc(Cl)c1O", "composite z-score", 0.654],
  ["C=CC[C@@]1(C(=O)O)N=C(c2ccc(OCCCO)cc2)O[C@@H]1c1ccccc1N=[N+]=[N-]", "composite z-score", 1.48],
  ["COC(=O)C1=CC(CCCO)=CC(C2CC2)N(Cc2sc3ccccc3c2Cl)C=C1C(=O)OC (stereo not given)", "composite z-score", 1.17],
  ["CN1CCC(CCCO)=CC1c1ccc(CN2CCCC2)cc1 (stereo not given)", "composite z-score", 0.988]
]}

Attention now turns to another entry.
input: Item under review: COCCOC(=O)N1C(=O)[C@@]2(c3cc(C#CCCO)ccc31)[C@H](c1ccc(O)cc1)N1[C@H](c3ccccc3)[C@H](c3ccccc3)OC(=O)[C@H]1[C@@H]2C(N)=O . Reported composite z-score?
output: 1.33

Origin of values: PubChem BioAssay
